Biological target: T1, mouse class II IA^k, purified from CH12 cells (mouse), P01910
T1 chain 1: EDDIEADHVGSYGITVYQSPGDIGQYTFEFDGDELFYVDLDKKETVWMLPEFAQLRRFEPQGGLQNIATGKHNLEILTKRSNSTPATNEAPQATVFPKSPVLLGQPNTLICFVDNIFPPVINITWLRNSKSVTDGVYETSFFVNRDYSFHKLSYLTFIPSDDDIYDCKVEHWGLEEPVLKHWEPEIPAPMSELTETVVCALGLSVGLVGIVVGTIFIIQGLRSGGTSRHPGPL
T1 chain 2: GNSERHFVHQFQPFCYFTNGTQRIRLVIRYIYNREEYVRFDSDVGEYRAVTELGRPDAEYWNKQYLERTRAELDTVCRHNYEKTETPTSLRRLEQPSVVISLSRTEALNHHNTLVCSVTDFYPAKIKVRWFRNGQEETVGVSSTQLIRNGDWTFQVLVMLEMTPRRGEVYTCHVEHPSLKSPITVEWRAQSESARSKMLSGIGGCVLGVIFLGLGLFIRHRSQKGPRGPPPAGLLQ
Test: assay standard, average IC50
Parameter Measured: pIC50
Answers are plain numbers, as −log10 of the molar value.

What value of pIC50 has been recorded for this entry: YNTDGSTDYGILQINSR (modifications not checked) [HEL 46-61 (assay standard, with N-terminal Y)]
7.70
